# run-description: qHTS of pediatric cancer cell lines to identify multiple opportunities for drug repurposing: Primary screen for A673 cells (AID 1347092); also: nearly all actives have a fitted effect of over 45% in size
# setup-conditions: A673 Ewing sarcoma viability, CellTiter-Glo ATP luminescence, 48 h; series mostly up to 46 µM
Records with an inconclusive call do not appear. Calls of active or inactive are those of the source. Calls follow the shape of the dose curve; as a rule, active = well fitted cell-killing curve with a large enough effect; inconclusive = small, poorly fitted or top-dose-only effect; inactive = no such curve, though single readings can be large or run the other way.
One label from this list, please: YES = active, NO = inactive

{"columns": ["compound", "class-assignment"],
 "data": [
  ["O=S1(=O)c2cccc3cccc(c23)N1CCCN1CCN(c2ccc(F)cc2)CC1", "NO"],
  ["COc1cc(C=C2CCC/C(=C\\c3ccc(O)c(OC)c3)C2=O)ccc1O", "YES"],
  ["Oc1cc(O)c2c(c1)O[C@H](c1ccc(O)c(O)c1)[C@H](O)C2", "NO"],
  ["CC1(C)O[C@@H]2C[C@H]3[C@@H]4C[C@H](F)C5=CC(=O)C=C[C@]5(C)[C@H]4[C@@H](O)C[C@]3(C)[C@]2(C(=O)CO)O1", "NO"],
  ["CCN(CC)C(=O)N1CCN(C)CC1", "NO"]
]}

// query # outcome recorded in this test, key = C[C@H](O)C(=O)Nc1c(I)c(C(=O)NC(CO)CO)c(I)c(C(=O)NC(CO)CO)c1I
// result NO

// query # outcome recorded in this test, key = Cc1onc(-c2c(Cl)cccc2Cl)c1C(=O)N[C@@H]1C(=O)N2[C@@H]1SC(C)(C)[C@@H]2C(=O)O
// result NO

* * *

# assay-system: Cytochrome P450 2D6 (Homo sapiens) (UniProt P10635)
# Sequence (P10635 whole entry, looked up): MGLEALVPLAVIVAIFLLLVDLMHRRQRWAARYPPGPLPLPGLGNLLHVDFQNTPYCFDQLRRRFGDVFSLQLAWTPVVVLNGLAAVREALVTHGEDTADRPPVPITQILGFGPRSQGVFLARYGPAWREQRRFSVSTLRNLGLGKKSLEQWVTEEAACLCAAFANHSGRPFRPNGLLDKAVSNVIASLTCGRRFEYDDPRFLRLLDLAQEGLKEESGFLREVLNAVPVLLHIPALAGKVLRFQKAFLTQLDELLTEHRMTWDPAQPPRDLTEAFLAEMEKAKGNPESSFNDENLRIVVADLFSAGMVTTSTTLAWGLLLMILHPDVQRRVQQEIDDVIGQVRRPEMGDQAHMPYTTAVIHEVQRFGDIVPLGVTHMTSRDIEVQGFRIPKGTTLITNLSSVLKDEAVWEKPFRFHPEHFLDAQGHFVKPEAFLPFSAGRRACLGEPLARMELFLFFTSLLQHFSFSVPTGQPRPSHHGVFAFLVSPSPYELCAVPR
# run-description: Cytochrome P450 family 2 subfamily D member 6 (CYP2D6) small molecule antagonists: luciferase biochemical (cell-free) qHTS assay (AID 1645840); also: nearly all actives have a fitted effect of over 55% in size
# setup-conditions: P450-Glo CYP2D6 enzyme, luciferin luminescence, 1 h; series mostly up to 57.4 µM
# Description: National Center for Advancing Translational Sciences [NCATS] Assay Overview: Cytochrome P450 (CYP) enzymes are membrane-bound hemeproteins that play a key role in metabolism of drugs and xenobiotics. Assaying the effect of chemicals on CYP isozymes is useful to minimize the adverse drug reactions and toxicities in drug development process. […] The luciferin products formed are detected with a luciferin detection reagent, and the amount of light produced is proportional to CYP activity. […]
Inconclusive results are not listed. Active and inactive are the calls of the source. Calls come from the whole dose curve; as a rule, active = well fitted inhibition curve with a large enough effect in the repeat runs; inconclusive = weak or mixed curves; inactive = flat fitted curve, though single readings scatter. Numbered stars: 1 amine (or outer) side, 2 acyl side, 3 side chain; on linkers, the order of the positions; unused ones are H or OH. Bridge positions count the residues as written; N and C are the ends. Square brackets hold non-standard residues; d marks the D form. Peptide text beside a SMILES is read from it. I, II: the chains in the order shown. Actinocin(9to1) = Cc1c2oc3c(C)ccc(C(=O)[*:1])c3nc-2c(C(=O)[*:2])c(N)c1=O; NMeV = CN[C@H](C(=O)O)C(C)C; Sar = CNCC(=O)O
One label from this list, please: YES (active), NO (inactive)

{"columns": ["compound", "class-assignment"],
 "data": [
  ["C[C@]12C=CC(=O)C=C1CC[C@@H]1[C@@H]2[C@@H](O)C[C@@]2(C)[C@H]1CC[C@]2(O)C(=O)CO", "NO"],
  ["CC(C)(C)CC(C)(C)c1ccc(O)c(Cc2ccc(Cl)cc2Cl)c1", "YES"],
  ["CC(C)n1nc(-c2cc3cc(O)ccc3[nH]2)c2c(N)ncnc21", "YES"],
  ["CCCCCCc1ccc(O)cc1O", "YES"],
  ["CCCCN1CCCC1C(=O)Nc1c(C)cc(C)cc1C (centres undefined)", "YES"]
]}

// query # outcome recorded in this test, key = Cc1c2oc3c(C)ccc(C(=O)N[C@@H]4C(=O)N[C@H](C(C)C)C(=O)N5CCC[C@H]5C(=O)N(C)CC(=O)N(C)[C@@H](C(C)C)C(=O)O[C@@H]4C)c3nc-2c(C(=O)N[C@@H]2C(=O)N[C@H](C(C)C)C(=O)N3CCC[C@H]3C(=O)N(C)CC(=O)N(C)[C@@H](C(C)C)C(=O)O[C@@H]2C)c(N)c1=O (I: T[dV]P[Sar][NMeV] / II: T[dV]P[Sar][NMeV]; ester I:1-I:C, II:1-II:C; linker I:N-II:N via Actinocin(9to1))
// result NO

// query # outcome recorded in this test, key = CC(C)(CO)[C@@H](O)C(=O)NCCCO
// result NO

// query # outcome recorded in this test, key = CCN1CCCC1=O
// result NO

// query # outcome recorded in this test, key = CN(C)CC/C=C1\c2ccccc2Sc2ccc(Cl)cc21
// result YES

// query # outcome recorded in this test, key = N[C@@H](CCC(=O)N[C@@H](CS)C(=O)NCC(=O)O)C(=O)O
// result NO

// query # outcome recorded in this test, key = NCCCC[C@H](N[C@@H](CCc1ccccc1)C(=O)O)C(=O)N1CCC[C@H]1C(=O)O
// result NO

// query # outcome recorded in this test, key = O=C(O)CNC(=O)c1ccccc1
// result NO

// query # outcome recorded in this test, key = CC(C)(C(=O)c1cccnc1)c1cccnc1
// result NO

// query # outcome recorded in this test, key = CN1CCN(C(c2ccccc2)c2ccccc2)CC1
// result YES

// query # outcome recorded in this test, key = Cc1nc2n(c(=O)c1CCN1CCC(c3noc4cc(F)ccc34)CC1)CCC[C@H]2O
// result YES

// query # outcome recorded in this test, key = O=C(CCCN1CCC(O)(c2ccc(Br)cc2)CC1)c1ccc(F)cc1
// result YES

// query # outcome recorded in this test, key = C[C@H]1C[C@H]2[C@@H]3CCC4=CC(=O)C=C[C@]4(C)[C@@]3(Cl)[C@@H](O)C[C@]2(C)[C@@]1(O)C(=O)CO
// result YES

// query # outcome recorded in this test, key = CCCCC1=NC2(CCCC2)C(=O)N1Cc1ccc(-c2ccccc2-c2nn[nH]n2)cc1
// result NO

// query # outcome recorded in this test, key = CC(=O)OCC(=O)[C@@]1(O)[C@H](C)C[C@H]2[C@@H]3CCC4=CC(=O)C=C[C@]4(C)[C@@]3(F)[C@@H](O)C[C@@]21C
// result NO

* * *

# run-description: qHTS of pediatric cancer cell lines to identify multiple opportunities for drug repurposing: Primary screen for A673 cells (AID 1347092); also: nearly all actives have a fitted effect of over 45% in size
# setup-conditions: A673 Ewing sarcoma viability, CellTiter-Glo ATP luminescence, 48 h; series mostly up to 46 µM
Results filed as inconclusive are left out. Calls of active or inactive are those of the source. The call rests on the fitted dose curve; in most records, active means well fitted cell-killing curve with a large enough effect; inconclusive means small, poorly fitted or top-dose-only effect; inactive means no such curve, though single readings can be large or run the other way. Numbered stars: 1 amine (or outer) side, 2 acyl side, 3 side chain; on linkers, the order of the positions; unused ones are H or OH. Bridge positions count the residues as written; N and C are the ends. Square brackets hold non-standard residues; d marks the D form. Peptide text beside a SMILES is read from it. I, II: the chains in the order shown. Actinocin(9to1) = Cc1c2oc3c(C)ccc(C(=O)[*:1])c3nc-2c(C(=O)[*:2])c(N)c1=O; NMeV = CN[C@H](C(=O)O)C(C)C; Sar = CNCC(=O)O
One label from this list, please: Y (active), N (inactive)

For orientation, consider the following solved cases.
{"columns": ["compound", "class-assignment"],
 "data": [
  ["COCc1c(C(C)C)nc(C(C)C)c(/C=C/[C@@H](O)C[C@@H](O)CC(=O)O)c1-c1ccc(F)cc1", "Y"],
  ["CCN(CCCc1ccccc1)CCCc1ccccc1", "N"],
  ["Cc1c2oc3c(C)ccc(C(=O)N[C@@H]4C(=O)N[C@H](C(C)C)C(=O)N5CCC[C@H]5C(=O)N(C)CC(=O)N(C)[C@@H](C(C)C)C(=O)O[C@@H]4C)c3nc-2c(C(=O)N[C@@H]2C(=O)N[C@H](C(C)C)C(=O)N3CCC[C@H]3C(=O)N(C)CC(=O)N(C)[C@@H](C(C)C)C(=O)O[C@@H]2C)c(N)c1=O (I: T[dV]P[Sar][NMeV] / II: T[dV]P[Sar][NMeV]; ester I:1-I:C, II:1-II:C; linker I:N-II:N via Actinocin(9to1))", "Y"]
]}

// query # outcome recorded in this test, key = O=C1OC2(c3ccc(O)cc3Oc3cc(O)ccc32)c2ccccc21
// result N

// query # outcome recorded in this test, key = O=C(COc1ccc(Cl)cc1)N1CCN(Cc2ccc3c(c2)OCO3)CC1
// result N

* * *

# Test system: CP269
# run-description: qHTS profiling for inhibitors of Plasmodium falciparum proliferation (AID 504749); also: nearly all actives have a fitted effect of over 60% in size
# setup-conditions: P. falciparum in erythrocytes, SYBR Green DNA, 72 h; series mostly up to 28.7 µM
Records with an inconclusive call do not appear. Active and inactive are the calls of the source. Calls come from the whole dose curve; as a rule, active = well fitted inhibition curve with a large enough effect; inconclusive = small, poorly fitted or top-dose-only effect; inactive = flat fitted curve, though single readings scatter.
One label from this list, please: active, inactive

For orientation, consider the following solved cases.
{"columns": ["molecule", "class-assignment"],
 "data": [
  ["Cc1c(C(N)=O)cc([N+](=O)[O-])cc1[N+](=O)[O-]", "inactive"],
  ["CO/N=C1\\CN(c2nc3c(cc2F)c(=O)c(C(=O)O)cn3C2CC2)CC1CN (stereo unspecified)", "active"],
  ["COc1c(C)c2c(c(O)c1C/C=C(\\C)CCC(=O)O)C(=O)OC2", "active"],
  ["COc1cc(OC)cc(OC)c1", "inactive"],
  ["O=C(COc1ccc(Cl)cc1)N1CCN(Cc2ccc3c(c2)OCO3)CC1", "inactive"]
]}

Consider the record given below.
// query # outcome recorded in this test, key = CC(=O)Oc1ccc(C(c2ccc(OC(C)=O)cc2)c2ccccn2)cc1
// result inactive
